This collection of values is drawn from PubChem BioAssay AID588850.

- experiment_description: inhibitors of PAF-induced NF-kB signaling, primary screen, cell-based, GFP fluorescence, uHTS (AID 588850);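 also: PAF is a Pseudomonas aeruginosa culture filtrate used as stimulus; plate controls were PAF-stimulated DMSO wells for no effect and unstimulated DMSO wells for full effect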
- assay_setup: KKLEB NF-kB-GFP reporter, GFP fluorescence overnight, at 5 µM, stronger effect = higher value
About 3,100 (0.86%) of roughly 360,000 compounds were called active. The list comes from a sample in which actives are over-represented; it also holds close analogues and randomly drawn compounds.
parameter_measured: inhibition (%)
The response must be a number in % with no trailing unit.

C[C@]12CC[C@H](O)C[C@H]1CC[C@@H]1C2CC[C@]2(C)[C@@H](C3=CC(=O)OC3)[C@@H](O)C[C@]12O (stereo partly specified)    53.2
CN(C)CCCN=Cc1c(O)n(Cc2ccco2)c(=O)[nH]c1=O    13.6

So for CC(CC(C#N)(c1ccccc1)c1ccccc1)N1CCCCC1 (stereo unspecified) , the logged inhibition turned out to be 7.8

So for `Cc1nn(-c2ccccc2)c(C)c1NC(=O)COC(=O)Cc1ccccc1` , the logged inhibition turned out to be 5.1

So for `COC(=O)COc1cc(C)cc2oc(=O)c3c(c12)CCCC3` , the logged inhibition turned out to be 5.1

So for CC1=C2C(=O)C3C(CC=C4CC(OC5OC(O)C(O)C(O)C5CO)CCC43C)C2CCC12OC1CC(C)CNC1C2C (stereo unspecified) , the logged inhibition turned out to be 7.6

So for COc1cccc(C(c2nnnn2-c2ccc3c(c2)OCCO3)N2CCC3(CC2)C(=O)NCN3c2ccccc2)c1OC (stereo unspecified) , the logged inhibition turned out to be -0.8

So for `c1cncc(CNC2=NCCC2)c1` , the logged inhibition turned out to be 13.7

So for O=c1[nH]c2ccccc2n1C1CCN(C(c2ccnc3ccccc23)c2nnnn2Cc2ccccc2)CC1 (stereo unspecified) , the logged inhibition turned out to be 39.9

So for `CN(C)S(=O)(=O)c1cc(C(=O)N2CCC(C(=O)O)(c3ccccc3)CC2)ccc1Cl` , the logged inhibition turned out to be 7.2

So for CSCCC(c1nnnn1C(C)(C)C)N1CCC(n2c(=O)[nH]c3ccccc32)CC1 (stereo unspecified) , the logged inhibition turned out to be -10.2

So for `CCCCCCCCCCCCn1ccc(=N)cc1` , the logged inhibition turned out to be 61.8

So for Cc1cc(C)c2c(c1)NP(=S)(c1ccccc1)N2 (stereo unspecified) , the logged inhibition turned out to be 24.3

So for `O=C1NC(=O)C(Cc2ccccc2)C(=O)N1` , the logged inhibition turned out to be -11

So for CCOC(=O)CC1=C(C(=O)OCC)C2(C(=O)N1)C(C(=O)OC)=C(N)Oc1ccccc12 (stereo unspecified) , the logged inhibition turned out to be -14

So for CC(=O)OC1C2(CC3N4C(=O)C5(CO)SSC4(CC31O)C(=O)N5C)OC(C)C(C)(C)C2=O (stereo unspecified) , the logged inhibition turned out to be 88.5

So for O=c1[nH]c2ccccc2n1C1CCN(C(c2ccccc2)c2nnnn2Cc2ccccc2)CC1 (stereo unspecified) , the logged inhibition turned out to be 85.1

So for `N=c1ccccn1Cc1ccccc1` , the logged inhibition turned out to be 14.3

###

- experiment_description: inhibitors of PAF-induced NF-kB signaling, primary screen, cell-based, GFP fluorescence, uHTS (AID 588850);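 also: PAF is a Pseudomonas aeruginosa culture filtrate used as stimulus; plate controls were PAF-stimulated DMSO wells for no effect and unstimulated DMSO wells for full effect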
- assay_setup: KKLEB NF-kB-GFP reporter, GFP fluorescence overnight, at 5 µM, stronger effect = higher value
The campaign covered roughly 360,000 compounds. About 3,100 (0.86%) were called active. This is one part of a sample in which actives are shown more often than they occur.
Listed next: entries and their corresponding inhibition.
The response must be a number in % with no trailing unit.

Worked examples, 6 compounds total:
COC1C(O)C(C)OC(OC2CCC3(C=O)C(CCC4C3CCC3(C)C(C5=CC(=O)OC5)CCC43O)C2)C1O (centres undefined)    91.1
CC(C)(C)c1ccc(OC(=O)N2CCCCC2)cc1    16
CN1CCc2cc3c(cc2[C@H]1[C@@H]1OC(=O)c2c1ccc1c2OCO1)OCO3    15.1
Cc1cccc(NC(=O)OC2CN3CCC2CC3)c1 (centres undefined)    9
CC(=CCOc1ccc2ccc(=O)oc2c1)C1=CC(=O)C(C)(C)O1    75.5
CCOP(=O)(OCC)C(NC(=O)NC)C(N)=O (centres undefined)    -12.3

Could you now look at the following compound, please?
So for `CCOC(=O)c1cccc(C2=C(CNC(=O)c3ccncc3)[C@H]3CC[C@@H](C2)N3Cc2ccccc2)c1` , the logged inhibition turned out to be 2.6

###

- experiment_description: inhibitors of PAF-induced NF-kB signaling, primary screen, cell-based, GFP fluorescence, uHTS (AID 588850);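 also: PAF is a Pseudomonas aeruginosa culture filtrate used as stimulus; plate controls were PAF-stimulated DMSO wells for no effect and unstimulated DMSO wells for full effect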
- assay_setup: KKLEB NF-kB-GFP reporter, GFP fluorescence overnight, at 5 µM, stronger effect = higher value
Among all 360,000 compounds or so, about 3,100 (0.86%) were called active. The sample holds actives, similar compounds and a random draw of the others, so the mix is not that of the screen.
parameter_measured: inhibition (%)
The response must be a number in % with no trailing unit.

Worked examples, 2 compounds total:
CCOP(=S)(OCC)SCOC(=O)NCC(=O)OC    -6.4
COC(=O)C1=C(c2cccc(OCc3ccccc3)c2)C[C@@H]2CC[C@H]1N2C(=O)NCc1ccc(Br)cc1    6.2

Could you now look at the following compound, please?
So for `CC[N+](CC)(CC)CCCCCCCCCC[N+](CC)(CC)CC` , the logged inhibition turned out to be 9.5

###

- experiment_description: inhibitors of PAF-induced NF-kB signaling, primary screen, cell-based, GFP fluorescence, uHTS (AID 588850);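 also: PAF is a Pseudomonas aeruginosa culture filtrate used as stimulus; plate controls were PAF-stimulated DMSO wells for no effect and unstimulated DMSO wells for full effect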
- assay_setup: KKLEB NF-kB-GFP reporter, GFP fluorescence overnight, at 5 µM
The whole screen tested about 360,000 compounds, of which about 3,100 (0.86%) were called active.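 Rule for the calls: active = at least 50% inhibition at 5 µM, scaled per plate between neutral and stimulator controls; inactive = the rest.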 The sample as a whole holds a higher share of actives than the screen did.
# output must be one of TRUE = active, FALSE = inactive

Illustrative cases are given below, each with its answer.
COC(=O)C1=C(c2ccccc2)C[C@@H]2CC[C@H]1N2C(=O)N1CCCCC1    FALSE
CCC(C)(O)C(=O)OC1C(=O)OC2CC3C(C)=CC(=O)C(O)C3(C)C3C4(O)OCC23C1C(C)C4O (configuration not stated)    TRUE
O=C(CCC(=O)N1C[C@H]2C[C@@H](C1)c1cccc(=O)n1C2)NCc1ccccc1C(F)(F)F    FALSE
CCOC(=O)C1(Cc2ccc(Cl)cc2)CCN(C(C)CCn2cccn2)CC1 (configuration not stated)    FALSE
O=C1NC(=O)N(CCc2ccc(F)cc2)C(=O)/C1=C/C=C/c1ccccc1    TRUE

Q: Hi, do you know how `CN(C)C(=O)Oc1ccc(NC(=O)N2CCOCC2)cc1` came out in this test?
A: FALSE

Q: Hi, do you know how C=CCN1C(=O)C2(C(C(=O)OCC)=C(N)Oc3c2c(=O)oc2ccccc32)c2ccccc21 (configuration not stated) came out in this test?
A: FALSE
